Quick reference for IC50 among some compounds
system_name: LRRK2(G2019S mutation, GST-LRRK2(amino acids 970-2527)) (Homo sapiens, UniProt Q5S007, G2019S)
Construct: GST-LRRK2(amino acids 970-2527); GST (N); purchased Life Technologies Corporation
Sequence (Q5S007 970-2527 G2019S): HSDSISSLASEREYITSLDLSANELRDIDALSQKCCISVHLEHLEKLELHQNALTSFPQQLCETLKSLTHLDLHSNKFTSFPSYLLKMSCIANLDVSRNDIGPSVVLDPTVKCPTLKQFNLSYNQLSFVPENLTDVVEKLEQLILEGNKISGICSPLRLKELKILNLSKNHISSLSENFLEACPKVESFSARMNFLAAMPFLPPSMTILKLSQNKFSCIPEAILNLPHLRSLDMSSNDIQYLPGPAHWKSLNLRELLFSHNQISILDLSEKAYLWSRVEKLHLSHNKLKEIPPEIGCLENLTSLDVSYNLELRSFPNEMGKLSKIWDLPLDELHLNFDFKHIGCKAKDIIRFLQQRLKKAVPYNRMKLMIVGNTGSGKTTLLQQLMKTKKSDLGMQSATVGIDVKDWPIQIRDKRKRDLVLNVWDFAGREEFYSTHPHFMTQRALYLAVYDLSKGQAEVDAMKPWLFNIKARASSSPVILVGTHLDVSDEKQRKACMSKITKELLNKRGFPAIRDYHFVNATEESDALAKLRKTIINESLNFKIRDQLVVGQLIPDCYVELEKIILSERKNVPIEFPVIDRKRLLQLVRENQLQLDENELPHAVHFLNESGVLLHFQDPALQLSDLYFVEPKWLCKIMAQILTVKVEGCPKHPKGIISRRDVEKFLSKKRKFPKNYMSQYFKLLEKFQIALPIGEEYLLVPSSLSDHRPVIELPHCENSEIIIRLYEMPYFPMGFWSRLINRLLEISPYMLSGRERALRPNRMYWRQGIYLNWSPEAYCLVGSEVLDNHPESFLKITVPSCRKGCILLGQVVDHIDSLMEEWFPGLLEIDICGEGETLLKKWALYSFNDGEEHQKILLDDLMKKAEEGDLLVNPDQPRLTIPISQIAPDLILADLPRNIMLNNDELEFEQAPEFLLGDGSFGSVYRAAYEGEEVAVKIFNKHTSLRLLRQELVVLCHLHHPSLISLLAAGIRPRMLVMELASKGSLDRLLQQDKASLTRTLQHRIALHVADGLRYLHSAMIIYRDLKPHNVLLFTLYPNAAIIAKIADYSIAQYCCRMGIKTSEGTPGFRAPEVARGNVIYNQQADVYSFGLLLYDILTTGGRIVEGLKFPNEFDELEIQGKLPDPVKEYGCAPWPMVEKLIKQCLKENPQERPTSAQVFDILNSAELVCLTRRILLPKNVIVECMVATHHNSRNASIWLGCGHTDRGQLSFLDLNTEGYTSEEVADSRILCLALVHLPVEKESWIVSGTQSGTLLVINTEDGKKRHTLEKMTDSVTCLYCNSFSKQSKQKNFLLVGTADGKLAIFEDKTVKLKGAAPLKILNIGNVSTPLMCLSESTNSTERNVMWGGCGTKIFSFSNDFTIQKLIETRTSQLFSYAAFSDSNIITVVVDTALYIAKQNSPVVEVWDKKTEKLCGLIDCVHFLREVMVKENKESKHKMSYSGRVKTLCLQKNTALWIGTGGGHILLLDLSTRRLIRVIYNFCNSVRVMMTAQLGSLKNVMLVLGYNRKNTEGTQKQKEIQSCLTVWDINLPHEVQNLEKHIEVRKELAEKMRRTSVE
test: LRRK2 Km ATP LanthaScreen Assay
Assay type: biochemical
stated_conditions: Km ATP LanthaScreen Assay; LRRK2 G2019S; mean IC50 values; read-out: LRRK2 IC50
Just the number plus its unit, please.

Reported IC50, compound c1ccc2c(-c3ccnc(NC4CCCOC4)c3)n[nH]c2c1 (stereo not drawn) [Example 74] : ____
57 nM

Please answer likewise for FC1CCCN(c2cc(-c3n[nH]c4ccccc34)ccn2)C1 (stereo not drawn) [Example 21]
22 nM

CS(=O)(=O)c1cccc(Nc2ccc3[nH]nc(-c4ccnc(NC5CC5)c4)c3c2)c1 [Example 112] , same question.
11 nM

And what about the compound COCCC(=O)Nc1cc(-c2n[nH]c3ccc(OC(C)C)cc23)ccn1 [Example 150] ?
51.7 nM

Same for CN1CCN(c2cc(-c3n[nH]c4ccccc34)ccn2)CC1=O [Example 46]
21 nM

And what about the compound FC1CCN(CCCNc2cc(-c3n[nH]c4ccccc34)ccn2)C1 (stereo not drawn) [Example 62] ?
46 nM

Next record, please: CCOc1ccc2[nH]nc(-c3ccnc(N4C[C@@H]5C[C@H]4CO5)c3)c2c1 [Example 221]
20.9 nM

Queued: c1ccc2c(-c3ccnc(NCCCn4ccnc4)c3)n[nH]c2c1 [Example 42]
31 nM

And then O=C(O)[C@@H]1CCCN(c2cc(-c3n[nH]c4ccccc34)ccn2)C1 [Example 52] , what is it?
31 nM
